I'd appreciate it if you could supply viability values for the items below.
# Test Method Notes: growth suppression of beta-catenin knockout HCT116, pilot screen, human colon tumor cells (AID 823);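 note: 0% = wells killed by 20 µM Hyamine and 100% = untreated DMSO cell wells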
# Condition Label: CellTiter-Glo, 60 h, at 10 µM, active compounds read low
Inconclusive results are not listed.
Answer in %, number only, no unit symbol.

Exercise: Which measured viability value corresponds to "O=C(Cn1ncc2c1-c1ccccc1OC2)N1CCN(Cc2ccc3c(c2)OCO3)CC1" ?
Key: 84.7

Exercise: Which measured viability value corresponds to CN1C(=O)NC(c2ccccc2)C2=C1CN(Cc1ccco1)C2=O (stereo not drawn) ?
Key: 90.4

Exercise: Which measured viability value corresponds to Oc1c(C(c2ccc(F)cc2)N2CCc3ccccc3C2)sc2ncnn12 (stereo not drawn) ?
Key: 103

Exercise: Which measured viability value corresponds to "Nc1ccc(Nc2ccccc2)c(Cl)c1" ?
Key: 94.7

Exercise: Which measured viability value corresponds to CCOC(=O)C1CCCN(C(=O)c2cn(C)c3ccc(S(=O)(=O)N(C)C)cc3c2=O)C1 (stereo not drawn) ?
Key: 97.8

Exercise: Which measured viability value corresponds to "Cc1nn2cc(-c3ccccc3)nc2s1" ?
Key: 93.3

Exercise: Which measured viability value corresponds to "CNC(=O)c1sc2nc(-c3ccc(OC)cc3)cn2c1C" ?
Key: 104

Exercise: Which measured viability value corresponds to "CC(=O)c1c(N(C)C)ccnc1C(F)(F)F" ?
Key: 107

Exercise: Which measured viability value corresponds to "O=C(CSc1nnc(-c2ccccn2)n1Cc1ccco1)c1ccc(Cl)cc1" ?
Key: 85.8

Exercise: Which measured viability value corresponds to "CC(C)C(=O)N1CCN(c2ccccc2N)CC1" ?
Key: 102

Exercise: Which measured viability value corresponds to "CCCNC(=O)Cc1cc(=O)[nH]c(=O)[nH]1" ?
Key: 105

Exercise: Which measured viability value corresponds to "CCCS(=O)(=O)n1nc(-c2ccc(OC)cc2OC)cc1N" ?
Key: 101

Exercise: Which measured viability value corresponds to "C=CCn1c(SCCC#N)nnc1-c1ccncc1" ?
Key: 100
